Sourced from PubChem BioAssay AID1963866

Reported viability, T/C by item:
- Tested on: PDC KRAS tumor spheroids with HUVEC/MSC, viability
- protocolSummary: Anticancer human tumor 349418-098-R-PDC patient-derived lung adenocarcinoma cell line growth inhibition [KRAS2]
- assayConditions: second compound 10 µM; first compound 0.01 µM; hits give low values

{"molecule": "CCN1CCN(Cc2ccc(Nc3ncc(F)c(-c4cc(F)c5nc(C)n(C(C)C)c5c4)n3)nc2)CC1 + COc1cc2nc(C)nc(NC(C)c3cc(N)cc(C(F)(F)F)c3)c2cc1OC1CCOC1", "viability, T/C [%]": 8.02}
{"molecule": "CC1COCCN1c1cc(-c2ccnn2C)c2ccnc(-c3ccn[nH]3)c2n1 (stereo not drawn) + CNCc1ccccc1-c1csc(C(C)Nc2nc(C)nc3cc(OC)c(OC)cc23)c1", "viability, T/C [%]": 0.08}
{"molecule": "CC(=O)OC12COC1CC(O)C1(C)C(=O)C(O)C3=C(C)C(OC(=O)C(O)C(NC(=O)OC(C)(C)C)c4ccccc4)CC(O)(C(OC(=O)c4ccccc4)C21)C3(C)C (stereo not drawn) + COc1cc2nc(C)nc(NC(C)c3cc(N)cc(C(F)(F)F)c3)c2cc1OC1CCOC1", "viability, T/C [%]": 20.1}

###

- Test system: PDC KRAS tumor spheroids with HUVEC/MSC, viability
- protocolSummary: Anticancer human tumor 349418-098-R-PDC cell line growth inhibition [KRAS2];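 further: spheroids exposed to compounds for seven days before readout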
- assayConditions: second compound 0.316 µM; first compound 1 µM; hits give low values
Consider the following molecules and their measured viability, T/C readings.
metricName: viability, T/C (%)

{"molecule": "CC(=O)OC12COC1CC(O)C1(C)C(=O)C(O)C3=C(C)C(OC(=O)C(O)C(NC(=O)OC(C)(C)C)c4ccccc4)CC(O)(C(OC(=O)c4ccccc4)C21)C3(C)C (stereo not given) + CC1OCC2(CCN(c3cnc(Sc4ccnc(N)c4Cl)c(N)n3)CC2)C1N", "endpointUnit": "%", "reading": 29.7}
{"molecule": "COC(=O)c1ccc2c(C(=Nc3ccc(N(C)C(=O)CN4CCN(C)CC4)cc3)c3ccccc3)c(O)[nH]c2c1 + C=CC(=O)N1CCN(c2nc(OCC3CCCN3C)nc3c2CCN(c2cccc4cccc(C)c24)C3)CC1CC#N", "endpointUnit": "%", "reading": 30.4}
{"molecule": "COC(=O)c1ccc2c(C(=Nc3ccc(N(C)C(=O)CN4CCN(C)CC4)cc3)c3ccccc3)c(O)[nH]c2c1 + COc1cc2nc(C)nc(NC(C)c3cc(N)cc(C(F)(F)F)c3)c2cc1OC1CCOC1", "endpointUnit": "%", "reading": 56.8}
{"molecule": "CC1COCCN1c1cc(-c2ccnn2C)c2ccnc(-c3ccn[nH]3)c2n1 (stereo not given) + COc1cc2nc(C)nc(NC(C)c3cc(N)cc(C(F)(F)F)c3)c2cc1OC1CCOC1", "endpointUnit": "%", "reading": 5.47}
{"molecule": "COC(=O)c1ccc2c(C(=Nc3ccc(N(C)C(=O)CN4CCN(C)CC4)cc3)c3ccccc3)c(O)[nH]c2c1 + CNCc1ccccc1-c1csc(C(C)Nc2nc(C)nc3cc(OC)c(OC)cc23)c1", "endpointUnit": "%", "reading": 25.7}

###

- System: PDC KRAS tumor spheroids with HUVEC/MSC, viability
- protocolSummary: Anticancer human tumor 349418-098-R-PDC cell line growth inhibition [KRAS2];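 further: spheroids exposed to compounds for seven days before readout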
- assayConditions: second compound 3.16 µM; first compound 0.01 µM; hits give low values
Each record here notes measured viability, T/C.

{"compound": "CC(=O)OC12COC1CC(O)C1(C)C(=O)C(O)C3=C(C)C(OC(=O)C(O)C(NC(=O)OC(C)(C)C)c4ccccc4)CC(O)(C(OC(=O)c4ccccc4)C21)C3(C)C (stereo not given) + CC1OCC2(CCN(c3cnc(Sc4ccnc(N)c4Cl)c(N)n3)CC2)C1N", "endpointUnit": "%", "viability, T/C": 21.5}
{"compound": "CC(C)n1nc(-c2ccc3oc(N)nc3c2)c2c(N)ncnc21 + C=CC(=O)N1CCN(c2nc(OCC3CCCN3C)nc3c2CCN(c2cccc4cccc(C)c24)C3)CC1CC#N", "endpointUnit": "%", "viability, T/C": 0.13}
{"compound": "Cn1ncnc1[C@H]1c2n[nH]c(=O)c3cc(F)cc(c23)N[C@@H]1c1ccc(F)cc1 + CNCc1ccccc1-c1csc(C(C)Nc2nc(C)nc3cc(OC)c(OC)cc23)c1", "endpointUnit": "%", "viability, T/C": 0.08}
{"compound": "CC1COCCN1c1cc(-c2ccnn2C)c2ccnc(-c3ccn[nH]3)c2n1 (stereo not given) + CNCc1ccccc1-c1csc(C(C)Nc2nc(C)nc3cc(OC)c(OC)cc23)c1", "endpointUnit": "%", "viability, T/C": 0.09}
{"compound": "CC(=O)OC12COC1CC(O)C1(C)C(=O)C(O)C3=C(C)C(OC(=O)C(O)C(NC(=O)OC(C)(C)C)c4ccccc4)CC(O)(C(OC(=O)c4ccccc4)C21)C3(C)C (stereo not given) + CNCc1ccccc1-c1csc(C(C)Nc2nc(C)nc3cc(OC)c(OC)cc23)c1", "endpointUnit": "%", "viability, T/C": 8.03}
